Please go through the items and note down their IC50.
Test system: HL-60
assay.notes: Cytotoxicity against human HL60 cells assessed as decrease in cell viability after 48 hrs by MTS assay
Type: functional, cell-based
measurement.parameters: HL-60, 48 h

-- ask Look up IC50 for this compound: "C=C1[C@@H]([C@H](C)CC/C=C(/C)C(=O)O)CC[C@@]2(C)C3=CC[C@H]4C(C)(C)C(=O)CC[C@]4(C)[C@@H]3C[C@@H]12"
-- reply > 10 µM

-- ask Thanks! And "CC(=O)O[C@@H]1CC[C@]2(C)[C@@H]3CC4=C(CO)[C@@H]([C@H](C)CC/C=C(/C)C(=O)O)CC[C@@]4(C)C3=CC[C@H]2C1(C)C" ?
-- reply > 10 µM

-- ask Thanks! And "C=C1[C@@H]([C@H](C)CC/C=C(/C)C(=O)O)CC[C@@]2(C)C3=CC[C@H]4C(C)(C)[C@H](O)CC[C@]4(C)[C@@H]3C[C@@H]12" ?
-- reply > 10 µM

-- ask Thanks! And "CC(=O)O[C@@H]1CC[C@]2(C)[C@@H]3C[C@H]4C(CO)=C([C@H](C)CC/C=C(/C)C(=O)O)CC[C@@]4(C)C3=CC[C@H]2C1(C)C" ?
-- reply > 10 µM

-- ask Thanks! And "C=C1[C@@H]([C@H](C)C[C@@H]2C=C(C)C(=O)O2)CC[C@@]2(C)C3=CC[C@H]4C(C)(C)[C@H](O)CC[C@]4(C)[C@@H]3C[C@@H]12" ?
-- reply 7.36 µM
